Tested on: Saccharomyces cerevisiae
Assay: protein stability index of tFT-peptide fusion (C-terminal peptide) (PSI (0-1 scale)); higher = more stable (slower turnover)
Details: genetic background: wild type; temperature: 30 C
Classify as follows. Reported protein stability index greater than or equal to 0.7: TRUE. Reported protein stability index below: FALSE.

Observe how each entry below is paired with its result.
- constructSequence: "IIKDITNRGYAW"
  system: "Saccharomyces cerevisiae"
  category: "TRUE"
- constructSequence: "NPPSRLPRLPLH"
  system: "Saccharomyces cerevisiae"
  category: "TRUE"
- constructSequence: "SCPHPAPPPPPP"
  system: "Saccharomyces cerevisiae"
  category: "FALSE"
- constructSequence: "PLPPLPPPFLPP"
  system: "Saccharomyces cerevisiae"
  category: "FALSE"
- constructSequence: "FLLVLPLSGLIV"
  system: "Saccharomyces cerevisiae"
  category: "FALSE"
- constructSequence: "KGHGTTCVGRQV"
  system: "Saccharomyces cerevisiae"
  category: "FALSE"
- constructSequence: "DVSSRDLCWLVC"
  system: "Saccharomyces cerevisiae"
  category: "FALSE"
- constructSequence: "RVVEFGFGGCHW"
  system: "Saccharomyces cerevisiae"
  category: "TRUE"

**Q:** Textbook exercise: given the entry `SLGNTRRTKKSI` , state whether its protein stability index is greater than or equal to 0.7.
**A:** FALSE

**Q:** Textbook exercise: given the entry `GLRGFCGVIEFF` , state whether its protein stability index is greater than or equal to 0.7.
**A:** TRUE

**Q:** Textbook exercise: given the entry `IHRLPPSLFPLL` , state whether its protein stability index is greater than or equal to 0.7.
**A:** TRUE

**Q:** Textbook exercise: given the entry `ILCYVWLVFSGF` , state whether its protein stability index is greater than or equal to 0.7.
**A:** FALSE

**Q:** Textbook exercise: given the entry `SLARPGLCFVIA` , state whether its protein stability index is greater than or equal to 0.7.
**A:** FALSE

====

Reported protein stability index is given for each of the following sequences.
System: Saccharomyces cerevisiae
Assay: protein stability index of tFT-peptide fusion (C-terminal peptide) (PSI (0-1 scale)); higher = more stable (slower turnover)
Details: genetic background: wild type; temperature: 30 C
Lab note: record the figure alone, no unit after it.

- constructSequence: "NFTSYDIYLSCS"
  protein stability index: 0.671
- constructSequence: "VLWSCCGGVRVR"
  protein stability index: 0.516
- constructSequence: "SIIRDKERNNYK"
  protein stability index: 0.654
- constructSequence: "KQRSKKCRETYR"
  protein stability index: 0.729
- constructSequence: "GGEYVGGRGCGL"
  protein stability index: 0.682

**Q:** Please report the recorded protein stability index for `VLYSRFPPPLIA` .
**A:** 0.48

**Q:** Please report the recorded protein stability index for `VRELGVGGWRRQ` .
**A:** 0.283

**Q:** Please report the recorded protein stability index for `KKIRGNSQLHPG` .
**A:** 0.63

**Q:** Please report the recorded protein stability index for `AGLGWGARQGAL` .
**A:** 0.67

**Q:** Please report the recorded protein stability index for `RVRNSQVVAVVG` .
**A:** 0.477

====

Reported protein stability index is given for each of the following sequences.
Test system: Saccharomyces cerevisiae
Experiment: protein stability index of tFT-peptide fusion (C-terminal peptide) (PSI (0-1 scale)); higher = more stable (slower turnover)
Conditions: genetic background: wild type; temperature: 30 C
Lab note: record the figure alone, no unit after it.

Solved cases (8 shown):
- constructSequence: "FPFFFLSILSAV"
  protein stability index: 0.122
- constructSequence: "FLVFRPPALFLR"
  protein stability index: 0.22
- constructSequence: "PSRLSFALLFHL"
  protein stability index: 0.406
- constructSequence: "GLNKGKYIKLYT"
  protein stability index: 0.486
- constructSequence: "YTVRRVWLVRSR"
  protein stability index: 0.325
- constructSequence: "LSFYLRAVRASL"
  protein stability index: 0.565
- constructSequence: "SSFDFVVSLCIY"
  protein stability index: 0.36
- constructSequence: "TPVIPLIRVRDC"
  protein stability index: 0.225

**Q:** Please report the recorded protein stability index for `VSFEFSVLWTVF` .
**A:** 0.383

**Q:** Please report the recorded protein stability index for `NAGSHHAAVKLG` .
**A:** 0.266

**Q:** Please report the recorded protein stability index for `LVFRVSLVEVVL` .
**A:** 0.214

**Q:** Please report the recorded protein stability index for `VPRGAALIFLCF` .
**A:** 0.464

**Q:** Please report the recorded protein stability index for `FLCLLFYLSFFS` .
**A:** 0.391

**Q:** Please report the recorded protein stability index for `MWFVGLCLHFFM` .
**A:** 0.364

**Q:** Please report the recorded protein stability index for `KKKEILVYIIQE` .
**A:** 0.512

**Q:** Please report the recorded protein stability index for `MALAVRVVICGA` .
**A:** 0.107

**Q:** Please report the recorded protein stability index for `PPIPTPSPIPLH` .
**A:** 0.658

**Q:** Please report the recorded protein stability index for `SLVLLVASVTGS` .
**A:** 0.384

====

Tested on: Saccharomyces cerevisiae
Assay: protein stability index of tFT-peptide fusion (C-terminal peptide) (PSI (0-1 scale)); higher = more stable (slower turnover)
Settings: genetic background: das1 deletion; temperature: 30 C
Classify as follows. Reported protein stability index greater than or equal to 0.7: condition met. Reported protein stability index below: condition not met.

- constructSequence: "LYLLLARVFEIW [SNF11 C-terminal 12 aa]"
  category: "condition not met"
- constructSequence: "LYGPSKTRKFFD [VMA4 C-terminal 12 aa]"
  category: "condition met"
- constructSequence: "KKHRVGMPKEDK [DIC1 C-terminal 12 aa]"
  category: "condition not met"
- constructSequence: "GPCCMYIGCGCG [YBR056C-B C-terminal 12 aa]"
  category: "condition not met"

**Q:** Textbook exercise: given the entry EGRKVKKVSFAQ [LOC1 C-terminal 12 aa] , state whether its protein stability index is greater than or equal to 0.7.
**A:** condition met

**Q:** Textbook exercise: given the entry LNTYVILFYTVY [YOL166W-A C-terminal 12 aa] , state whether its protein stability index is greater than or equal to 0.7.
**A:** condition not met

**Q:** Textbook exercise: given the entry VILMVDFTLVGP [YDR262W C-terminal 12 aa] , state whether its protein stability index is greater than or equal to 0.7.
**A:** condition not met

**Q:** Textbook exercise: given the entry FIREFVLKNYSK [SNO2 C-terminal 12 aa] , state whether its protein stability index is greater than or equal to 0.7.
**A:** condition not met

**Q:** Textbook exercise: given the entry EEWYTSNHDSLA [PRP18 C-terminal 12 aa] , state whether its protein stability index is greater than or equal to 0.7.
**A:** condition met

**Q:** Textbook exercise: given the entry FGLFKKKNKSKK [SVL3 C-terminal 12 aa] , state whether its protein stability index is greater than or equal to 0.7.
**A:** condition met

**Q:** Textbook exercise: given the entry DKKKKKSKCVIL [RHO5 C-terminal 12 aa] , state whether its protein stability index is greater than or equal to 0.7.
**A:** condition met

**Q:** Textbook exercise: given the entry QQQQQKKESSTA [GIM5 C-terminal 12 aa] , state whether its protein stability index is greater than or equal to 0.7.
**A:** condition met

====

System: Saccharomyces cerevisiae
Test: protein stability index of tFT-peptide fusion (C-terminal peptide) (PSI (0-1 scale)); higher = more stable (slower turnover)
Settings: genetic background: wild type; temperature: 30 C
quantityKind: protein stability index
Lab note: record the figure alone, no unit after it.

Solved cases (4 shown):
- constructSequence: "VAASGEVVPLMA"
  quantityKind: "protein stability index"
  testResult: 0.604
- constructSequence: "CYVGALQKCGTR"
  quantityKind: "protein stability index"
  testResult: 0.674
- constructSequence: "IFMHPRATLPAR"
  quantityKind: "protein stability index"
  testResult: 0.73
- constructSequence: "WGGVGRLAGLLG"
  quantityKind: "protein stability index"
  testResult: 0.703

**Q:** Field: protein stability index (Saccharomyces cerevisiae). Entry: `LMHDIRLCSSVV`
**A:** 0.702

**Q:** Field: protein stability index (Saccharomyces cerevisiae). Entry: `PLPRPVLPPLFS`
**A:** 0.739

**Q:** Field: protein stability index (Saccharomyces cerevisiae). Entry: `VLGVVGNYFESA`
**A:** 0.668

====

Test system: Saccharomyces cerevisiae
Assay: protein stability index of tFT-peptide fusion (C-terminal peptide) (PSI (0-1 scale)); higher = more stable (slower turnover)
Details: genetic background: das1 deletion; temperature: 30 C
Classify as follows. Reported protein stability index greater than or equal to 0.3: criterion met. Reported protein stability index below: criterion not met.

- constructSequence: "VVFWWGHLLVSA"
  category: "criterion not met"
- constructSequence: "RLFVRIQLSLLF"
  category: "criterion met"
- constructSequence: "GVLTVVLQVGVV"
  category: "criterion met"
- constructSequence: "FAIRMHCLIFRC"
  category: "criterion not met"
- constructSequence: "IGILVTAVPVFD"
  category: "criterion met"

**Q:** Textbook exercise: given the entry `IGFSPSFQLYSA` , state whether its protein stability index is greater than or equal to 0.3.
**A:** criterion met

**Q:** Textbook exercise: given the entry `GCSVSLCCVFVV` , state whether its protein stability index is greater than or equal to 0.3.
**A:** criterion met

**Q:** Textbook exercise: given the entry `VVFLLGPLVCGG` , state whether its protein stability index is greater than or equal to 0.3.
**A:** criterion met

**Q:** Textbook exercise: given the entry `IKCVPLVWRLTV` , state whether its protein stability index is greater than or equal to 0.3.
**A:** criterion met
